target: Nitric oxide synthase 1 (Rattus norvegicus, UniProt P29476)
Sequence (P29476 whole entry): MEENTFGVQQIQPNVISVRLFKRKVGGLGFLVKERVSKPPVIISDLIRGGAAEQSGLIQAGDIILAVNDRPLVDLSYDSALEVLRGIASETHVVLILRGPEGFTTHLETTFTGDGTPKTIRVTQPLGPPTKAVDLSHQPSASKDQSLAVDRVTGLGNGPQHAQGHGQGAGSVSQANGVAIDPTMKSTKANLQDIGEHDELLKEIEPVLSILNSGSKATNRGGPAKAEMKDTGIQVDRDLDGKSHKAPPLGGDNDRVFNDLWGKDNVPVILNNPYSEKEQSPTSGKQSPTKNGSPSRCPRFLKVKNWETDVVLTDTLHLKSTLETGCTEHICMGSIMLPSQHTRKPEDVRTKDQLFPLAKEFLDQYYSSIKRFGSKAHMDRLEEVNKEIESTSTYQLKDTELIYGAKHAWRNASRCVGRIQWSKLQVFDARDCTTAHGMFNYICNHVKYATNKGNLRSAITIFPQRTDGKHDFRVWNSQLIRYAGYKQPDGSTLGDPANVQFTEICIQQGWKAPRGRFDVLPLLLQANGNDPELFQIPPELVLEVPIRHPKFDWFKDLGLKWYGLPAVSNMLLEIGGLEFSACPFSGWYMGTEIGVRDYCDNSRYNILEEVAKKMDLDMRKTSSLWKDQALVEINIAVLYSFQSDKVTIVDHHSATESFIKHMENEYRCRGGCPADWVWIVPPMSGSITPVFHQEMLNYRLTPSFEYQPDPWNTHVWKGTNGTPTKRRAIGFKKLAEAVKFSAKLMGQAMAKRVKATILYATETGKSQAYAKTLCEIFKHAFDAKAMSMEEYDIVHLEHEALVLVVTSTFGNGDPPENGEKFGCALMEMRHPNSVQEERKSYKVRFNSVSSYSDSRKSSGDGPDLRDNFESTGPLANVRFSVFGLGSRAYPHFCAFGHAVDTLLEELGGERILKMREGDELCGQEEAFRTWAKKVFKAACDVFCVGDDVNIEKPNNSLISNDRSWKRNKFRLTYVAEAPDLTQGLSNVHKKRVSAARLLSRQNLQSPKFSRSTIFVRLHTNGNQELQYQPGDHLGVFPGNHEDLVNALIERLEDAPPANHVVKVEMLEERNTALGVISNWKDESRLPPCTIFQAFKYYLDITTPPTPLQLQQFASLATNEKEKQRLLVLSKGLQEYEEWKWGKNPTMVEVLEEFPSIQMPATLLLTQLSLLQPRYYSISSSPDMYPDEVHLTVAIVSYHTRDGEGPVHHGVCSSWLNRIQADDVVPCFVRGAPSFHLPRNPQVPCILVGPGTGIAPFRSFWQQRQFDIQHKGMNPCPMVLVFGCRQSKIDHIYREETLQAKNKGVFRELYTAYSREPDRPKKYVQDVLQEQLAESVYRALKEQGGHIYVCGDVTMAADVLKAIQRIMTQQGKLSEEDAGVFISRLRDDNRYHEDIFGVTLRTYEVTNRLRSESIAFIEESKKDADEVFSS
Readout Kind: Ki
Please state the value followed by its unit.

Molecule: Cc1cc(N)nc(C[C@H]2CNC[C@H]2NCCNCc2ccc(F)cc2)c1 (racemic)
Measured On: Nitric oxide synthase 1 (Rattus norvegicus, UniProt P29476)
Ki: 144 nM

Molecule: Cc1cc(C[C@H]2CNC[C@H]2NCCNCc2ccc(Cl)cc2)cc(N)n1 (racemic)
Measured On: Nitric oxide synthase 1 (Rattus norvegicus, UniProt P29476)
Ki: 18800 nM

Molecule: Cc1cc(N)nc(C[C@H]2CNC[C@H]2NCCNCc2cccc(C(F)(F)F)c2)c1 (racemic)
Measured On: Nitric oxide synthase 1 (Rattus norvegicus, UniProt P29476)
Ki: 206 nM

Molecule: Cc1cc(C[C@H]2CNC[C@H]2NCCNCCc2cccc(F)c2)cc(N)n1 (racemic)
Measured On: Nitric oxide synthase 1 (Rattus norvegicus, UniProt P29476)
Ki: 551 nM

Hey, can you go through the list below and give me Ki for every item?
1. Cc1cccc(CNCCN[C@@H]2CNC[C@@H]2Cc2cc(C)cc(N)n2)c1 (racemic)
2. CC(=O)[C@H]1CNC[C@@H]1NC(=O)[C@@H](N)CCCNC(=N)N[N+](=O)[O-]

Response:
1: 159 nM; 2: 87 nM

----------
biological target: UniProt P29476
pKi: −log10 of the molar value.
Binary classification by pKi, with 6 as an inclusive lower bound for Criterion met; all other cases are Criterion not met.

// below: answered compounds
Compound: Cc1cc(N)nc(C[C@H]2CNC[C@H]2NCCNCc2ccc(C(F)(F)F)cc2)c1 (racemic)
Measured On: UniProt P29476
Class: Criterion met
--
Compound: CC(=O)[C@@H]1C[C@@H](NC(=O)[C@@H](N)CCCNC(=N)N[N+](=O)[O-])CN1
Measured On: UniProt P29476
Class: Criterion met

Prompt: Textbook exercise: given the entry Cc1cc(N)nc(C[C@H]2CNC[C@H]2N(C)CCNCCc2cccc(F)c2)c1 (racemic) , state whether its pKi is greater than or equal to 6.
Response: Criterion met

Prompt: Textbook exercise: given the entry CN(C)CCN[C@@H]1CNC[C@@H]1Cc1cccc(N)n1 (racemic) , state whether its pKi is greater than or equal to 6.
Response: Criterion not met

Prompt: Textbook exercise: given the entry Cc1cc(N)nc(C[C@H]2CNC[C@H]2NCCNCCc2ccc(F)cc2)c1 (racemic) , state whether its pKi is greater than or equal to 6.
Response: Criterion met

Prompt: Textbook exercise: given the entry Cc1cc(N)nc(C[C@H]2CNC[C@H]2NCCNCc2ccc(Cl)cc2Cl)c1 (racemic) , state whether its pKi is greater than or equal to 6.
Response: Criterion met

Prompt: Textbook exercise: given the entry Nc1cccc(C[C@H]2CNC[C@H]2N[C@H]2CCN(Cc3ccccc3)C2)n1 (racemic) , state whether its pKi is greater than or equal to 6.
Response: Criterion not met

----------
molecular target: Nitric oxide synthase, inducible (Mus musculus)
For each entry below, report its Ki value.
Numbers only, in µM.

Past entries and their recorded results:
Compound: CC(=O)[C@H]1CNC[C@@H]1NC(=O)[C@@H](N)CCCNC(=N)N[N+](=O)[O-]
Ki [µM]: 5.76

Compound: Cc1cc(N)nc(C[C@H]2CNC[C@H]2NC[C@H](C)NCc2ccc(Cl)cc2)c1 (racemic)
Ki [µM]: 12.2

Compound: Nc1cccc(C[C@H]2CNC[C@H]2NCCNCc2ccccc2)n1 (racemic)
Ki [µM]: 161

Compound: Nc1cccc(C[C@H]2CNC[C@H]2NC[C@H](N)Cc2ccccc2)n1 (racemic)
Ki [µM]: 238

Compound: Cc1cc(N)nc(C[C@H]2CNC[C@H]2NCCNCc2ccc(C(F)(F)F)cc2)c1 (racemic)
Ki [µM]: 14.1

Hey, can you go through the list below and give me Ki for every item?
1. Nc1cccc(C[C@H]2CNC[C@H]2NC[C@@H](N)Cc2ccccc2)n1 (racemic)
2. Nc1cccc(C[C@H]2CNC[C@H]2N[C@H]2CCN(Cc3ccccc3)C2)n1 (racemic)
3. CC(=O)[C@@H]1C[C@@H](NC(=O)[C@@H](N)CCCNC(=N)N[N+](=O)[O-])CN1

Response:
[297, 222, 29]

----------
Target: Nitric oxide synthase 3 (Bos taurus, UniProt P29473)
Sequence (P29473 whole entry): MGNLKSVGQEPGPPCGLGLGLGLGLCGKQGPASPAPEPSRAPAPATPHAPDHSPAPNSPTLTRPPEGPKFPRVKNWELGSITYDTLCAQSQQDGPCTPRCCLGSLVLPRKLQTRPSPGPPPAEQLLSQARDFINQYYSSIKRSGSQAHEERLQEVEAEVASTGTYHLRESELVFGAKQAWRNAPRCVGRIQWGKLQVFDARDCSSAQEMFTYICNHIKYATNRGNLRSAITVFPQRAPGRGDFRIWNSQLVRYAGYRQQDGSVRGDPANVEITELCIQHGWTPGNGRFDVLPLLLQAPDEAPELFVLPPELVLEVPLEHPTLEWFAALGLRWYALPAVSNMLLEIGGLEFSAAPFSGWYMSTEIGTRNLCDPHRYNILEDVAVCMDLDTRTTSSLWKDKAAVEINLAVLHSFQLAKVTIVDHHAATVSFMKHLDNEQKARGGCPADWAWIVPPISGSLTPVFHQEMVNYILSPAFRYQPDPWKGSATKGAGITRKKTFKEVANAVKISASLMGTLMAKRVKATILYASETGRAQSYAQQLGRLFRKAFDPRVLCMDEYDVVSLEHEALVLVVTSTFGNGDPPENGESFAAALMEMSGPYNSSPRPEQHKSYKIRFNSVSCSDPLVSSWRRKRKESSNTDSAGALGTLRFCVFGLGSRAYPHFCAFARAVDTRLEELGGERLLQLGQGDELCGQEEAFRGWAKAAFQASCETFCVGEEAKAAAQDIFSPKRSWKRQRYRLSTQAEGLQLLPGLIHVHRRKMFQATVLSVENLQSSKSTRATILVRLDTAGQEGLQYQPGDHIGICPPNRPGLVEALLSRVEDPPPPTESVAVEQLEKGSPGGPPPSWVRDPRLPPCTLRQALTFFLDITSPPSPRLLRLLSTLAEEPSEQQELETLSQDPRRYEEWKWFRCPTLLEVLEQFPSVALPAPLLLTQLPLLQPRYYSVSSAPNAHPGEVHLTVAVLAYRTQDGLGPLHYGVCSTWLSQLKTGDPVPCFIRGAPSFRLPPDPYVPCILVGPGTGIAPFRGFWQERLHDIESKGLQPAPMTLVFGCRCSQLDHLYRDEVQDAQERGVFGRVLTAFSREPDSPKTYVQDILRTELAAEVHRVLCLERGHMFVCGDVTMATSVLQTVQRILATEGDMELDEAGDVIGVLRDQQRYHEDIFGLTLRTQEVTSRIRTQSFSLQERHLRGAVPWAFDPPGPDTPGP
// returns rule not met unless Ki is strictly below 100 µM, in which case rule met

// below: answered molecules
Molecule: Cc1cc(N)nc(C[C@H]2CNC[C@H]2NCCNCc2ccc(C(F)(F)F)cc2)c1 (racemic)
Class: rule met

Molecule: Cc1cc(C[C@H]2CNC[C@H]2NCCNCCc2cccc(F)c2)cc(N)n1 (racemic)
Class: rule not met

Molecule: Cc1cc(C[C@H]2CNC[C@H]2NCCNCc2ccc(Cl)cc2)cc(N)n1 (racemic)
Class: rule not met

Molecule: Cc1cc(N)nc(C[C@H]2CNC[C@H]2NCCNCCc2ccc(F)cc2)c1 (racemic)
Class: rule met

Molecule: CC(=O)[C@@H]1C[C@@H](NC(=O)[C@@H](N)CCCNC(=N)N[N+](=O)[O-])CN1
Class: rule not met

Molecule: Nc1cccc(C[C@H]2CNC[C@H]2NC[C@H](N)Cc2ccccc2)n1 (racemic)
Class: rule not met

Molecule: Cc1cc(N)nc(C[C@H]2CNC[C@H]2N(C)CCNCc2ccc(Cl)cc2)c1 (racemic)
Class: rule not met

Molecule: Nc1cccc(C[C@H]2CNC[C@H]2NC[C@@H](N)Cc2ccccc2)n1 (racemic)
Class: rule not met

Molecule: Cc1cc(N)nc(C[C@H]2CNC[C@H]2N(C)CCNCCc2cccc(F)c2)c1 (racemic)
Class: rule met

Molecule: Cc1cc(N)nc(C[C@H]2CNC[C@H]2NCCNCc2ccc(Cl)c(Cl)c2)c1 (racemic)
Class: rule met

Prompt: Find out if reported Ki for Nc1cccc(C[C@H]2CNC[C@H]2N[C@H]2CCNC2)n1 (racemic) is less than 100 µM
Response: rule not met

Prompt: Find out if reported Ki for CC(=O)[C@H]1CNC[C@@H]1NC(=O)[C@@H](N)CCCNC(=N)N[N+](=O)[O-] is less than 100 µM
Response: rule not met

Prompt: Find out if reported Ki for Cc1cc(N)nc(C[C@H]2CNC[C@H]2NCCNCc2ccc(F)cc2)c1 (racemic) is less than 100 µM
Response: rule not met

----------
Molecular target: Nitric oxide synthase, inducible (Mus musculus, UniProt P29477)
Sequence (P29477 whole entry): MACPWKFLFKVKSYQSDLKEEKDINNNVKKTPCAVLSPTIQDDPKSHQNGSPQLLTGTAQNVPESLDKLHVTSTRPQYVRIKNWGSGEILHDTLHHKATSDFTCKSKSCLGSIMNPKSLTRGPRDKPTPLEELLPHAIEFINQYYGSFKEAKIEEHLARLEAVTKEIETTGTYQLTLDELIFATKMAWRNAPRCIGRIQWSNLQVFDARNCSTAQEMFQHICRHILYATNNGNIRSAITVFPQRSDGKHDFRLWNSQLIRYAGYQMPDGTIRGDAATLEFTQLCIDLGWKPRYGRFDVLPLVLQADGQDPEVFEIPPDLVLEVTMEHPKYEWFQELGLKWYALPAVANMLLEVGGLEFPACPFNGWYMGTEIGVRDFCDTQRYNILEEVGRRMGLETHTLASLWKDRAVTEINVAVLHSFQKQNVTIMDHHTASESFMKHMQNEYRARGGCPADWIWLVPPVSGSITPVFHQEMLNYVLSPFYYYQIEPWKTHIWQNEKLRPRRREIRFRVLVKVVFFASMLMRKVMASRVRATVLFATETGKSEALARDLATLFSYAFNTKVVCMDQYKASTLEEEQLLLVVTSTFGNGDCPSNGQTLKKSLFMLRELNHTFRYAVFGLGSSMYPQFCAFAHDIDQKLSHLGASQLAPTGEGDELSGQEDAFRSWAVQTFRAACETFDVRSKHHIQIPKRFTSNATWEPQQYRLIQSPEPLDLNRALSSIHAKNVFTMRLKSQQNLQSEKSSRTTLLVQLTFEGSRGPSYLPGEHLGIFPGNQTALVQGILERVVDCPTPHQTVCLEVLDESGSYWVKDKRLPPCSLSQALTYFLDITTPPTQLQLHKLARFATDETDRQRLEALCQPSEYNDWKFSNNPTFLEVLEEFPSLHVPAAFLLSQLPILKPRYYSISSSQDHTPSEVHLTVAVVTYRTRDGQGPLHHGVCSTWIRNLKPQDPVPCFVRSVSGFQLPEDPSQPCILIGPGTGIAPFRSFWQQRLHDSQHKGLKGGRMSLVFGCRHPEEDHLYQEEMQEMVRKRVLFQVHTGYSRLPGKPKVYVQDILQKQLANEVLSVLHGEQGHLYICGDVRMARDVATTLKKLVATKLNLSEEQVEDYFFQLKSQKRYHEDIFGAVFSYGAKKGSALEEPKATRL
Readout Kind: Ki

Past entries and their recorded results:
Compound: Nc1cccc(C[C@H]2CNC[C@H]2N[C@@H]2CCNC2)n1 (racemic)
Measured On: Nitric oxide synthase, inducible (Mus musculus, UniProt P29477)
Result: 200 µM
--
Compound: Nc1cccc(C[C@H]2CNC[C@H]2N[C@@H]2CCN(Cc3ccccc3)C2)n1 (racemic)
Measured On: Nitric oxide synthase, inducible (Mus musculus, UniProt P29477)
Result: 425 µM

Now for another entry.
Lab book: Ki of Cc1cc(C[C@H]2CNC[C@H]2NCCNCCc2cccc(F)c2)cc(N)n1 (racemic) noted as 10.6 µM
